- assay.explanation: Pharmacokinetics and relative bioavailability after a single oral dose (two liquid formulations, powder in capsule)
- Type: in vivo, male Beagle dogs
- details: male, Beagle, dog, plasma, po, 5 mg/kg, Formulation #1 (Table 43), 5 mg/kg oral, male Beagle dogs, plasma, Mean; read-out: CL/F (converted)
measure.name: CL/F (L/h/kg)
Record the value in L/h/kg, omitting the unit from your answer.

q: Please give the measured CL/F for this molecule: `COc1cc(Nc2nccc(Nc3cccnc3-c3ccccn3)n2)ccc1N1CCN(C)CC1`
a: 20

* * *

- Test system: hepcidin expression in HepG2 cells
- assay.explanation: Inhibition of hepcidin expression in HepG2 cells (qPCR)
- Assay type: cell-based
- details: Homo sapiens, absence of BMP-2 stimulation, read-out: IC50, inhibition of basal hepcidin expression
- Experimental: To evaluate the in vitro efficacy of Compound 2, HepG2 cells were stimulated with the ALK2 ligand BMP-2 in the presence or absence of various concentrations of Compound 2 and the resulting levels of hepcidin expression were measured by qPCR. […] Effects on basal hepcidin transcription were also measured (in the absence of BMP-2 stimulation) and the results are shown in FIG. 2B. […]
pIC50: −log10 of the molar value.
measure.name: pIC50

q: Please give the measured pIC50 for this molecule: `COc1cc(Nc2nccc(Nc3cccnc3-c3ccccn3)n2)ccc1N1CCN(C)CC1`
a: ~7.00

* * *

- assay.explanation: Preliminary brain PK study
- Format: in vivo
- details: mouse, mice, brain tissue, Table 4, route and dose not printed (FIG. 4A: intravenous and oral)
measure.name: AUC(0-inf) (ng·h/mL)
Record the value in ng·h/mL, omitting the unit from your answer.

q: Please give the measured AUC(0-inf) for this compound: `COc1cc(Nc2nccc(Nc3cccnc3-c3ccccn3)n2)ccc1N1CCN(C)CC1`
a: 758

* * *

- assay.explanation: Pharmacokinetic and tissue distribution study
- Format: in vivo, CD-1 male mice
- details: male, CD-1, mouse; mice, 20 mg/kg PO; brain
measure.name: half-life (h)
Record the value in h, omitting the unit from your answer.

q: Please give the measured half-life for this compound: `COc1cc(Nc2nccc(Nc3cccnc3-c3ccccn3)n2)ccc1N1CCN(C)CC1`
a: 2.6

* * *

- assay.explanation: Pharmacokinetics and relative bioavailability after a single oral dose (two liquid formulations, powder in capsule)
- Type: in vivo, male Beagle dogs
- details: male, Beagle, dog, plasma, po, 2 mg/kg, Formulation #1 (Table 43), 2 mg/kg oral, male Beagle dogs, plasma, Mean; read-out: CL/F (converted)
measure.name: CL/F (mL/min/kg)
Record the value in mL/min/kg, omitting the unit from your answer.

q: Please give the measured CL/F for this compound: `COc1cc(Nc2nccc(Nc3cccnc3-c3ccccn3)n2)ccc1N1CCN(C)CC1`
a: 483

* * *

- assay.explanation: Pharmacokinetics and relative bioavailability after a single oral dose (two liquid formulations, powder in capsule)
- Assay type: in vivo, male Beagle dogs
- details: male, Beagle, dog, plasma, po, 5 mg/kg, Powder in Capsule (Table 45), 5 mg/kg oral, male Beagle dogs, plasma, individual dog; read-out: AUC0-TLast
measure.name: AUC(0-t) (ng·h/mL)
Record the value in ng·h/mL, omitting the unit from your answer.

q: Please give the measured AUC(0-t) for this compound: `COc1cc(Nc2nccc(Nc3cccnc3-c3ccccn3)n2)ccc1N1CCN(C)CC1`
a: 191

* * *

- assay.explanation: Pharmacokinetics and relative bioavailability after a single oral dose (two liquid formulations, powder in capsule)
- Format: in vivo, male Beagle dogs
- details: male, Beagle, dog, plasma, po, 2 mg/kg, Powder in Capsule (Table 45), 2 mg/kg oral, male Beagle dogs, individual dog
measure.name: Tmax (h)
Record the value in h, omitting the unit from your answer.

q: Please give the measured Tmax for this compound: COc1cc(Nc2nccc(Nc3cccnc3-c3ccccn3)n2)ccc1N1CCN(C)CC1 [Compound 2]
a: 3
